assay: stability in human plasma (LC-MS/MS); type: in vitro ADME; conditions: % of the compound remaining after 4 h
Stability in human plasma 4 h for assorted compounds
Measured attribute: Stability in human plasma 4 h (%)

[
  {
    "Compound": "CCCCCCCCc1ccc(OC(C)C(=O)c2nc(C(=O)OC)cs2)cc1 (stereo not shown)",
    "Measured attribute": "Stability in human plasma 4 h",
    "Reported result": 79.7
  },
  {
    "Compound": "CCCCCCCOc1ccc(OCC(=O)c2nc(C(=O)OC)cs2)cc1",
    "Measured attribute": "Stability in human plasma 4 h",
    "Reported result": 63.3
  },
  {
    "Compound": "CCCCCCSc1ccc(OC(C)C(=O)c2nc(C(=O)OC)cs2)cc1 (stereo not shown)",
    "Measured attribute": "Stability in human plasma 4 h",
    "Reported result": 63
  },
  {
    "Compound": "CCCCCCOc1ccc(SCC(=O)c2nc(C(=O)OC)cs2)cc1",
    "Measured attribute": "Stability in human plasma 4 h",
    "Reported result": 82
  }
]
